Assay: yeast display, Sf9 membrane polyspecificity reagent, FACS + sequencing; frameworks hold sequencing errors
Readout: polyreactivity (PSR sort gate)

Some solved cases for reference:
{"columns": ["Sequence Content", "polyreactivity (PSR sort gate)"],
 "data": [
  ["QVQLVESGGGLVQAGGSLRLSCAASGFIFPYYAMGWYRQAPGKERELVAAISQSGGSTYYADSVKGRFTISRDNAKNTVYLQMNSLKPEDTAVYYCAKYIPSYHDGDYWGQGTQVTVSS", "low polyreactivity"],
  ["QVQLQESVGGLVQAGGSLRLSCAASGNIFPTDRMGWYRQAPGKELEFVATISHGGSTNYADSVKGRFTISRDNAKNTVYLQMNSLKPEDTAVYYCAVWSLGRWRHYYWGQGTQVTVRS", "low polyreactivity"],
  ["QVQLVESGGGLVQAGGRLRLSCAASGRTFRRYTMGWYRQAPGKERELVAAISRNGGSTYYADSVKGRFTISRDNAKNTVYLQMNSLKPEDTAVYYCAALRYAYIADYDYWGQGTQVTVSS", "high polyreactivity"],
  ["QVQLVESGGGLVQAGGSLRLSCAASGRIFYPYAMGWYRQAPGKEREVVAGITSSDDTTYYADSVKGRFTISRDNAKNTVYLQMNSLKPEDTAVYYCNTSVDRGLGYWGQGTQVTVSS", "low polyreactivity"]
]}

polyreactivity (PSR sort gate) for "QVQLVESGGGLVQAGGSLRLSCAASGKPMGWYRQAPGKERELVAAITYGGTTTYYADSVKGRFTISRDNAKNTVYLQMNSQKPEDTAVYYCAADYVFVATPLRYDYWGQGTQVTVSS" ?
low polyreactivity

polyreactivity (PSR sort gate) for "QVQLLESGGGLVQAGGSLSLTCAASGSTFTRYVMGWYRQAPGTETELVAAISSNGGRTYYADSVKGRFTISRDNAKNTVDLQMTSLKPEDTAVYYCNLVRYAYNASVVYWGQGTQVTVSS" ?
high polyreactivity

polyreactivity (PSR sort gate) for "QVQLVESGGGLVQAGGSLRLSCAASGSTFQVNAMGWYRQAPGQDRELVAAITYRTGRTYYADSVKGRCTISRDNAKNTGYLQMNSLKPEDTAVYYCAATAHSYYGVGMGYWGQGTQVTVSS" ?
high polyreactivity
